System: sub-genomic HCV NS3-NS5B replicon genotype 1a (Huh-7 cells)
Assay: Replicon luciferase cell based assay, genotype 1a
Settings: Huh-7 genotype 1a luciferase replicon, 48 hours; read-out: EC50 GT 1a
Experimental readout: EC50

q: Consider the compound CNC(=O)c1c(-c2ccc(F)cc2)oc2cc(N(c3ccc(C4CCB(O)O4)c(Cl)c3)S(C)(=O)=O)c(C3CC3)cc12 (single isomer, unassigned; enantiomer 2) . State its measured EC50.
a: 1 to 10 nM

----------
Test: In vivo pharmacokinetic study, rat
Settings: Rat
Experimental readout: DNAUC (ng·h/mL/mg/kg)
Answer with a number only, understood to be in ng·h/mL/mg/kg.

q: Consider the compound CNC(=O)c1c(-c2ccc(Cl)cc2)oc2cc(N(Cc3ccc(B(O)O)c(F)c3)S(C)(=O)=O)c(C3CC3)cc12 [C] . State its measured DNAUC.
a: 434

q: Consider the compound CNC(=O)c1c(-c2ccc(F)cc2)oc2cc(N(Cc3ccc(B(O)O)c(Cl)c3)S(C)(=O)=O)c(C3CC3)cc12 [B] . State its measured DNAUC.
a: 122

q: Consider the compound CNC(=O)c1c(-c2ccc(F)cc2)oc2cc(N(c3cc(Cl)c4c(c3)COB4O)S(C)(=O)=O)c(C3CC3)cc12 [Example 15] . State its measured DNAUC.
a: 1089

q: Consider the compound CNC(=O)c1c(-c2ccc(F)cc2)oc2cc(N(Cc3ccc(B(O)O)c(F)c3)S(C)(=O)=O)c(C3CC3)cc12 [D] . State its measured DNAUC.
a: 403

q: Consider the compound CNC(=O)c1c(-c2ccc(F)cc2)oc2cc(N(Cc3cc(F)c4c(c3)COB4O)S(C)(=O)=O)c(C3CC3)cc12 [A] . State its measured DNAUC.
a: 541

q: Consider the compound CNC(=O)c1c(-c2ccc(F)cc2)oc2cc(N(c3ccc(B(O)O)c(Cl)c3)S(C)(=O)=O)c(C3CC3)cc12 [Example 1] . State its measured DNAUC.
a: 567
